tested.system: T1, hu-MCSP(D3 domain)-avi-his (human, UniProt Q6UVK1 1582-2224)
T1 construct: Recombinant D3 domain with avi and his tags; also called human MCSP(D3 domain)-avi-his; Human MCSP D3
T1 sequence: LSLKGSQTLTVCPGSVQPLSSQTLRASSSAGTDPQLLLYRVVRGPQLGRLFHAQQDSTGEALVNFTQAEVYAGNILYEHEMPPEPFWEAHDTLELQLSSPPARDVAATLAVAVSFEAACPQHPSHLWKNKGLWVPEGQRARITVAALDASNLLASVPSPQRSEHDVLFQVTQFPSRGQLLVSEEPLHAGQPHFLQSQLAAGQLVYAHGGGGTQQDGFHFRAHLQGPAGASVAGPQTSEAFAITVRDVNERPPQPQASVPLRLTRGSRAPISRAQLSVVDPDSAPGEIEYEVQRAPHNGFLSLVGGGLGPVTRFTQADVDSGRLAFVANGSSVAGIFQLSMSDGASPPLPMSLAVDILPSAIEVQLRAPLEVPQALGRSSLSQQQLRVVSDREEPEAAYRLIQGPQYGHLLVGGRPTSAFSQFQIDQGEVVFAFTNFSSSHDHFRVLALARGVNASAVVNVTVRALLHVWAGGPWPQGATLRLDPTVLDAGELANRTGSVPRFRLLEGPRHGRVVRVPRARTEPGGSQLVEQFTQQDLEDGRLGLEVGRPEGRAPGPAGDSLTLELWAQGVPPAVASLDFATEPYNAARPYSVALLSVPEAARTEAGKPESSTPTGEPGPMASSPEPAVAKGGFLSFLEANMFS
assay.name: SPR Biacore T200, 25 C; avidity: MCSP D3 captured via anti-Penta His, IgG as analyte
Experimental: For analyzing the avidity of the interaction of different anti-MCSP IgGs to human and cynomolgus MCSP D3 direct coupling of around 9,500 resonance units (RU) of the anti-Penta His antibody (Qiagen) was performed on a CM5 chip at pH 5.0 using the standard amine coupling kit (Biacore, Freiburg/Germany). Antigens were captured for 60 s at 30 nM with 10 μl/min respectively. […] The dissociation was monitored for 180 s. […] The dissociation was monitored for 60 s. […]
endpoint: pKd
Scale: pKd equals -log10([C]), with [C] in mol/L.

Example cases with answers are listed next.
M4-3(C1)/ML2(C5) IgG (antibody, V domains shown, Human IgG1) VH: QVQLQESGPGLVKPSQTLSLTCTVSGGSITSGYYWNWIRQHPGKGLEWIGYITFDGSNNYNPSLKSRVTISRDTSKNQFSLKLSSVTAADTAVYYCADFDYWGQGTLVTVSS VL: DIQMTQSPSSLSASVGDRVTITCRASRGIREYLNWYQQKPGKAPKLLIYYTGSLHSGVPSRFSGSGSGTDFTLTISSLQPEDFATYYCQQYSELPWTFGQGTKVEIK ... 11.34
Parental M4-3/ML2 IgG (antibody, V domains shown, Human IgG1 format, from mammalian production; also called M4-3 ML2 (parental); anti-MCSP antibody M4-3/ML2) VH: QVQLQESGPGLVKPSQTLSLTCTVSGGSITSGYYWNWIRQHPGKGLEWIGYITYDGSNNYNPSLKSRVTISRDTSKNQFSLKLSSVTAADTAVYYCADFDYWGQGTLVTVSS VL: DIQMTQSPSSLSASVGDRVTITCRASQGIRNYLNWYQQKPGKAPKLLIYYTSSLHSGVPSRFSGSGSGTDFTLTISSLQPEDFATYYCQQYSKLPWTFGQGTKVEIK ... 11.05
M4-3(C1)/ML2(G3) IgG (antibody, V domains shown, Human IgG1) VH: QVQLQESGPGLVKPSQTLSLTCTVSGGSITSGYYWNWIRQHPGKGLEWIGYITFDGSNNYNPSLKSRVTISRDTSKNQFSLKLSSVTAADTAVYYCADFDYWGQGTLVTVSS VL: DIQMTQSPSSLSASVGDRVTITCRASQGIRNYLNWYQQKPGKAPKLLIYYTSSLHSGVPSRFSGSGSGTDYTLTISSLQPEDFATYYCQQYSALPWTFGQGTKVEIKR ... 11.35

Now examine the next entry.
stdin: Which measured pKd value corresponds to M4-3(C1)/ML2(E10) IgG (antibody, V domains shown, Human IgG1) VH: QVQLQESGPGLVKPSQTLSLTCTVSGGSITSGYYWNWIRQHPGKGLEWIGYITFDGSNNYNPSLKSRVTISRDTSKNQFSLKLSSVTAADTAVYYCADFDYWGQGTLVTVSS VL: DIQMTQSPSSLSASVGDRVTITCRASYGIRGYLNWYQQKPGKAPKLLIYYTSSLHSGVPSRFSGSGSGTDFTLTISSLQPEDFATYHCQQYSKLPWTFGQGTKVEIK ?
stdout: 11.20
